Biological target: MELK (Homo sapiens, UniProt Q14680)
Sequence (Q14680 whole entry): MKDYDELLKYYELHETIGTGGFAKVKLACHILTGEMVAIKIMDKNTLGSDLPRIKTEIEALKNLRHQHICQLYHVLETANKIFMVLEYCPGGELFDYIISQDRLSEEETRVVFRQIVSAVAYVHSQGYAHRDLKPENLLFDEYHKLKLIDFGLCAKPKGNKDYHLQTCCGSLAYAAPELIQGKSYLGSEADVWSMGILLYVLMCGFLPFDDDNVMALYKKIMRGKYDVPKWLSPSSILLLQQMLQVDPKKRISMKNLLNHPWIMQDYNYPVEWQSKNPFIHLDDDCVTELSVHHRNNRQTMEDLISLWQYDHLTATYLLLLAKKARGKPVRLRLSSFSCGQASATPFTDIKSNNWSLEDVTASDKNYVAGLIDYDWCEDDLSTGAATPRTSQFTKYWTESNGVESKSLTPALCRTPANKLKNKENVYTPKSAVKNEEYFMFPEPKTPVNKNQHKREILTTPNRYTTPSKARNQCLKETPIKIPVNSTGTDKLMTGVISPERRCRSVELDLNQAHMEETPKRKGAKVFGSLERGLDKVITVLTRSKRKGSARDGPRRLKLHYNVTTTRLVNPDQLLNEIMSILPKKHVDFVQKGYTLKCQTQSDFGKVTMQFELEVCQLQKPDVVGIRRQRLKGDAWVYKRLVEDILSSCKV
pIC50: −log10 of the molar value.
Result type: pIC50

>  <Molecule smiles>
COc1cccc(-c2ccc3ncc4[nH]nc(-c5ccc(C(C)(C)C#N)cc5)c4c3c2)c1

>  <Readout value>
< 7.52

$$$$
>  <Molecule smiles>
CC(C)(C#N)c1ccc(-c2n[nH]c3cnc4ccc(-c5ccccc5)cc4c23)cc1

>  <Readout value>
< 7.52

$$$$
>  <Molecule smiles>
Cc1ccccc1-c1ccc2ncc3[nH]nc(-c4ccc(C(C)(C)C#N)cc4)c3c2c1

>  <Readout value>
< 7.52

$$$$
>  <Molecule smiles>
CC(C)(C#N)c1ccc(-c2n[nH]c3cnc4ccc(-c5ccc(F)cc5)cc4c23)cc1

>  <Readout value>
< 7.52

$$$$

* * *

Molecular target: PI3Kα(E545K) (Homo sapiens, UniProt P42336, E545K)
Sequence (P42336 whole entry E545K): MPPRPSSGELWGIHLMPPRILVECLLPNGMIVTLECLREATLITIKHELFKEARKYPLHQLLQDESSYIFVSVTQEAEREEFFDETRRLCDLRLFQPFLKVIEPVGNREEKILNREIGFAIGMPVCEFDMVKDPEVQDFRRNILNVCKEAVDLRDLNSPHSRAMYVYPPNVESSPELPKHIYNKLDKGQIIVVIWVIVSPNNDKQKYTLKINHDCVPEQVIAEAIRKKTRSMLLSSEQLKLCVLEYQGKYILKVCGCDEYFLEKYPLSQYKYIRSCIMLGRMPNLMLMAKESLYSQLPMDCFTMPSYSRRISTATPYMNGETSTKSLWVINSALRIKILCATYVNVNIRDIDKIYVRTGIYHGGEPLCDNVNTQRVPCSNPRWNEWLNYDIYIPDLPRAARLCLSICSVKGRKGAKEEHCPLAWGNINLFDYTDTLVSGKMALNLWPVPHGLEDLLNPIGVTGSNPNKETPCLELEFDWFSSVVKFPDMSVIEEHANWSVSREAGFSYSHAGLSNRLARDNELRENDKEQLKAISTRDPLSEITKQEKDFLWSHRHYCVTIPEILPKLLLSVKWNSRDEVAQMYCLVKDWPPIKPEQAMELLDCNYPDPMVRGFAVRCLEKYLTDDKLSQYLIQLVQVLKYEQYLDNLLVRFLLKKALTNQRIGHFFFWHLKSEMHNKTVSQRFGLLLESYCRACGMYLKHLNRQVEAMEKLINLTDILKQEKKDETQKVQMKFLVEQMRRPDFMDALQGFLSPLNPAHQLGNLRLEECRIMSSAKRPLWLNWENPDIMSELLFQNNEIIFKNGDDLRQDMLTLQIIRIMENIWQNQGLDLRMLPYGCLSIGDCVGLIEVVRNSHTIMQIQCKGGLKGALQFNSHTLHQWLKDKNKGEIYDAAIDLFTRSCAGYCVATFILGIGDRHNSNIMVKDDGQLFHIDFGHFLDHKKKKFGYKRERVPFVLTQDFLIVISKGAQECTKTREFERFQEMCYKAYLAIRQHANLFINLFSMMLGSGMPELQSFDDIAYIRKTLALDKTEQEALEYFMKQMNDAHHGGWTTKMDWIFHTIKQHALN
Sequence (P27986 whole entry partner): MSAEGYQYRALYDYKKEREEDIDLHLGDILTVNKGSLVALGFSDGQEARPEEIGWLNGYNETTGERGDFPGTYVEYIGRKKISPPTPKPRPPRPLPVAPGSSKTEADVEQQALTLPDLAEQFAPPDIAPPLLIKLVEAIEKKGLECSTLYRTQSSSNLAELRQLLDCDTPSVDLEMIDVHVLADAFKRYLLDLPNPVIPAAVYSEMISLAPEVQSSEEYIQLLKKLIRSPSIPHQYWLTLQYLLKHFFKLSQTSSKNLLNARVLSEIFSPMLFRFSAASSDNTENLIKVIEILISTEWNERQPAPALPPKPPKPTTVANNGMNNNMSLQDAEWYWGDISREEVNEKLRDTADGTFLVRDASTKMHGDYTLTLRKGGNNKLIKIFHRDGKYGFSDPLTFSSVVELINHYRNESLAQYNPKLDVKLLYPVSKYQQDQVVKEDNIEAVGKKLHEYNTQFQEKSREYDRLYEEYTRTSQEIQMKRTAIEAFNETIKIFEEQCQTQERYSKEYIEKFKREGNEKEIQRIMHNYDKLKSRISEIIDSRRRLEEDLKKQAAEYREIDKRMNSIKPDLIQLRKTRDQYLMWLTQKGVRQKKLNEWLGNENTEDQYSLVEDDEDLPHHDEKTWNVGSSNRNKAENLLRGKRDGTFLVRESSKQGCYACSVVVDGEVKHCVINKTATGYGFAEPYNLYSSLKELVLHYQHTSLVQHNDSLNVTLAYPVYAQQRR
Assay: KinaseGLO luminescent PI3-kinase assay, mutant PI3Kα(E545K)
Procedure: Compound Preparation: KinaseGLO assay: 30× stocks of inhibitors were prepared in DMSO. A 10 mM master stock was prepared and all other stocks were generated by serial dilution of this master stock in DMSO. […] PI3-Kinase Assay: The KinaseGLO® Luminescent Kinase Assay (Promega) is a luciferin-luciferase based luminescent assay that utilizes a proprietary thermostable luciferase to quantify the ATP remaining in a solution after a kinase reaction. […]
Result type: IC50

>  <Molecule>
CC(C)(C#N)c1ccc(-c2n[nH]c3cnc4ccc(-c5cnc6ccccc6c5)cc4c23)cc1 [Compound 1078]

>  <Result type>
IC50

>  <Readout value>
15 to 55 nM

$$$$
>  <Molecule>
CC(C)(C#N)c1ccc(-c2n[nH]c3cnc4ccc(-c5cccnc5)cc4c23)cc1 [Compound 1107]

>  <Result type>
IC50

>  <Readout value>
< 10 nM

$$$$
>  <Molecule>
CC(C)(C#N)c1ccc(-c2n[nH]c3cnc4ccc(-c5ccc6ncccc6c5)cc4c23)cc1 [Compound 1110]

>  <Result type>
IC50

>  <Readout value>
15 to 55 nM

$$$$

* * *

Target: PDGFRα(D842V) (Homo sapiens, UniProt P16234, D842V)
Sequence (P16234 24-1089 D842V): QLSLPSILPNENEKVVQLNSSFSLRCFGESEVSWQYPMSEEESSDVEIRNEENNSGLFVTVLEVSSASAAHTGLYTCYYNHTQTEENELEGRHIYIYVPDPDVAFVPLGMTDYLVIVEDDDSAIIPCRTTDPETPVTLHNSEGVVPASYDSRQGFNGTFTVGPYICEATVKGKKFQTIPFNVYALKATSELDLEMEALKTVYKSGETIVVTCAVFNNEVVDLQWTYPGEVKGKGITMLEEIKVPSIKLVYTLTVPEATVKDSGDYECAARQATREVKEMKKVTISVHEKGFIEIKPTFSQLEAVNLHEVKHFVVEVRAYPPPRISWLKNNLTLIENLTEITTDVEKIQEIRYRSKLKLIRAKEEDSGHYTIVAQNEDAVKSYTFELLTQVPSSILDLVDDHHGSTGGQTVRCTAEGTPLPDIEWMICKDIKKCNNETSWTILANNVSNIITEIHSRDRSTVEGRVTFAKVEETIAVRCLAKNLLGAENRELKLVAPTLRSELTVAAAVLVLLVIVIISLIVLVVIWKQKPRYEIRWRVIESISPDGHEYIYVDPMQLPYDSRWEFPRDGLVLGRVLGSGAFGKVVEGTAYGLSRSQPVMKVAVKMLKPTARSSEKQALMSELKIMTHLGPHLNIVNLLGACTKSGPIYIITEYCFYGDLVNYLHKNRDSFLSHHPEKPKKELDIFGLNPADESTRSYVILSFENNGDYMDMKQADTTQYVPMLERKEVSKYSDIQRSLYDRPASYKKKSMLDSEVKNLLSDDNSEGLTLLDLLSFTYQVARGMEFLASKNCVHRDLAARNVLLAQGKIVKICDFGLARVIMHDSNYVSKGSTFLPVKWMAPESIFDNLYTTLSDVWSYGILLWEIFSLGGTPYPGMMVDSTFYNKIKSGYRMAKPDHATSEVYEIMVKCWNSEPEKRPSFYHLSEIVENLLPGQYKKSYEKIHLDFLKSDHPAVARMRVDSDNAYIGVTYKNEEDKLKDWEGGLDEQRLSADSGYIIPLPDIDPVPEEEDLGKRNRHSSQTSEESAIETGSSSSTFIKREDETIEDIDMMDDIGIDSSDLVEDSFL
Assay: Radiometric HotSpot kinase assay, PDGFRα(D842V)
List of IC50 values.

>  <Molecule smiles>
Cc1cccc(-c2ccc3ncc4[nH]nc(-c5ccc(C(C)(C)C#N)cc5)c4c3c2)c1

>  <IC50>
> 1000 nM

$$$$
>  <Molecule smiles>
CC(C)(C#N)c1ccc(-c2n[nH]c3cnc4ccc(-c5cc(F)cc(F)c5)cc4c23)cc1

>  <IC50>
> 100 nM

$$$$
>  <Molecule smiles>
CC(C)(C#N)c1ccc(-c2n[nH]c3cnc4ccc(-c5ccc6c(c5)CC=N6)cc4c23)cc1

>  <IC50>
> 100 nM

$$$$
>  <Molecule smiles>
CC(C)(C#N)c1ccc(-c2n[nH]c3cnc4ccc(-c5cncnc5)cc4c23)cc1

>  <IC50>
> 100 nM

$$$$
>  <Molecule smiles>
CC(C)(C#N)c1ccc(-c2n[nH]c3cnc4ccc(-c5cccc(Nc6ccncc6)c5)cc4c23)cc1

>  <IC50>
> 100 nM

$$$$

* * *

Biological target: PIM-1 (Homo sapiens, UniProt P11309)
Sequence (P11309 whole entry): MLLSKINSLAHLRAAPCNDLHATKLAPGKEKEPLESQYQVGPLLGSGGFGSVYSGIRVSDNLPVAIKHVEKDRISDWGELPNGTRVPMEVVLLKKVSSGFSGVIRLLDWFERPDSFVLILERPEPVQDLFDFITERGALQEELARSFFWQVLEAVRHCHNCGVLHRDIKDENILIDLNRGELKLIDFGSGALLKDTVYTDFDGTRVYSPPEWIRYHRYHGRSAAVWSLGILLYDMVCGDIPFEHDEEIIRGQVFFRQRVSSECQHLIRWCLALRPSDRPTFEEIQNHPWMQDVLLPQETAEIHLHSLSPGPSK
Assay: Radiometric HotSpot kinase assay, PIM-1
Assay type: biochemical
Details: 1 μM compound, 10 μM ATP

>  <Molecule smiles>
CC(C)(C#N)c1ccc(-c2n[nH]c3cnc4ccc(-c5ccn6ncnc6c5)cc4c23)cc1

>  <inhibition at 1 µM>
> 95%

$$$$
>  <Molecule smiles>
CC(C)(C#N)c1ccc(-c2n[nH]c3cnc4ccc(-c5ccc6ncccc6c5)cc4c23)cc1

>  <inhibition at 1 µM>
60 to 85%

$$$$
>  <Molecule smiles>
CC(C)(C#N)c1ccc(-c2n[nH]c3cnc4ccc(-c5cncnc5)cc4c23)cc1

>  <inhibition at 1 µM>
60 to 85%

$$$$
>  <Molecule smiles>
CC(C)(C#N)c1ccc(-c2n[nH]c3cnc4ccc(-c5ccc(F)cc5)cc4c23)cc1

>  <inhibition at 1 µM>
60 to 85%

$$$$
>  <Molecule smiles>
CC(C)(C#N)c1ccc(-c2n[nH]c3cnc4ccc(-c5cccnc5)cc4c23)cc1

>  <inhibition at 1 µM>
85 to 95%

$$$$
